Source: patent US6677316B2

The entries below come with measured Adenosine A3 receptor ECR* values attached.
- Assayed target: human adenosine A3 receptor (Homo sapiens)
- Construct: expressed in transfected cells; host or cells: Chinese hamster ovary (CHO) cells with CRE/SPAP/HYG reporter elements
- Sequence (P0DMS8 whole entry): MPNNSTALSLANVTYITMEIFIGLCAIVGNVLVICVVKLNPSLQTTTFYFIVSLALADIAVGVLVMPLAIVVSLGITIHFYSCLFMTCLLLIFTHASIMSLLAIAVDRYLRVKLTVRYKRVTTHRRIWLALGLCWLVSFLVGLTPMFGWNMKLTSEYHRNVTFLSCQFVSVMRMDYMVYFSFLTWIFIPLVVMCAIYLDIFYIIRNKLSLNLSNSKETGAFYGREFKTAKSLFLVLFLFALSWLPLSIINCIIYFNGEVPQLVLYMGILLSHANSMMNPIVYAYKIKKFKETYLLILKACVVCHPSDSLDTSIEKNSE
- Protocol summary: Reporter gene assay (CRE/SPAP) in CHO cells, agonist potency relative to NECA, adenosine A3 receptor
- Type: cell-based
- Parameters: key: equipotent concentration ratio, NECA = 1
- Applied conditions: ECR = equipotent concentration ratio relative to NECA = 1, inhibition of forskolin-stimulated SPAP production
- Experimental: Reporter Gene Experiments Agonist activity was measured in Chinese hamster ovary (CHO) cells containing the CRE/SPAP/HYG (CRE=cyclic AMP response element; HYG=hygromycin resistance; SPAP=secreted placental alkaline phosphatase) reporter gene elements, which upon stimulation of cAMP levels produced SPAP. […] From these readings, the concentration-dependence of the inhibition by the agonist for forskolin-stimulated SPAP production can be calculated. […]
Value kind: Adenosine A3 receptor ECR*

Compound: CCOC(=O)N1CCC(Nc2ncnc3c2ncn3[C@@H]2O[C@H](c3nnc(C(F)(F)F)o3)[C@@H](O)[C@H]2O)CC1 [Example 180]
Assayed target: human adenosine A3 receptor (Homo sapiens)
Operator symbol: >
Reported result: 471

Compound: CCc1nnc([C@H]2O[C@@H](n3cnc4c(NC(C)C)ncnc43)[C@H](O)[C@@H]2O)o1 [Example 131]
Assayed target: human adenosine A3 receptor (Homo sapiens)
Operator symbol: =
Reported result: 199.01

Compound: CC(C)(C)c1cc([C@H]2O[C@@H](n3cnc4c(NC5CCOCC5)ncnc43)[C@H](O)[C@@H]2O)on1 [Example 28]
Assayed target: human adenosine A3 receptor (Homo sapiens)
Operator symbol: =
Reported result: 44.7

Compound: CC(C)c1nnc([C@H]2O[C@@H](n3cnc4c(Nc5ccc(F)cc5Cl)ncnc43)[C@H](O)[C@@H]2O)[nH]1 [Example 68]
Assayed target: human adenosine A3 receptor (Homo sapiens)
Operator symbol: =
Reported result: 417.37

Compound: CC(C)(C)c1nnc([C@H]2O[C@@H](n3cnc4c(NC5CCOCC5)ncnc43)[C@H](O)[C@@H]2O)o1 [Example 3]
Assayed target: human adenosine A3 receptor (Homo sapiens)
Operator symbol: =
Reported result: 152

Compound: CNS(=O)(=O)CCNc1ncnc2c1ncn2[C@@H]1O[C@H](c2ncc(C)o2)[C@@H](O)[C@H]1O [Example 127]
Assayed target: human adenosine A3 receptor (Homo sapiens)
Operator symbol: =
Reported result: 21.62

Compound: CCc1cc([C@H]2O[C@@H](n3cnc4c(NC(CC)CC)nc(Cl)nc43)[C@H](O)[C@@H]2O)no1.O=CO [Example 163]
Assayed target: human adenosine A3 receptor (Homo sapiens)
Operator symbol: =
Reported result: 232

###

- Assayed target: human adenosine A1 receptor (Homo sapiens, UniProt P30542)
- Construct: expressed in transfected cells; host or cells: Chinese hamster ovary (CHO) cells with CRE/SPAP/HYG reporter elements
- Sequence (P30542 whole entry): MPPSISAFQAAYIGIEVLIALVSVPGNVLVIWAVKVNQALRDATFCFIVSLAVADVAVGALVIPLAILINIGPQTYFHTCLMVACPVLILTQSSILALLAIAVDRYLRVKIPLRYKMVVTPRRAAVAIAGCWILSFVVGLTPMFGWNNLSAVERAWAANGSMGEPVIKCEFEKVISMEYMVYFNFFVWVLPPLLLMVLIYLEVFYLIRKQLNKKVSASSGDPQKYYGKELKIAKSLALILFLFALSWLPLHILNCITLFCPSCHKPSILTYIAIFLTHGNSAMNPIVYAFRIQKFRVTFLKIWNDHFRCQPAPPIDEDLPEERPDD
- Protocol summary: Reporter gene assay (CRE/SPAP) in CHO cells, agonist potency relative to NECA, adenosine A1 receptor
- Assay type: cell-based
- Parameters: key: equipotent concentration ratio, NECA = 1
- Applied conditions: ECR = equipotent concentration ratio relative to NECA = 1, inhibition of forskolin-stimulated SPAP production
# reported Adenosine A1 receptor ECR*; entries follow

Molecule: CCOC(=O)N1CCC(Nc2ncnc3c2ncn3[C@@H]2O[C@H](c3cc(CC)no3)[C@@H](O)[C@H]2O)CC1 [Example 138]
Assayed target: human adenosine A1 receptor (Homo sapiens, UniProt P30542)
Adenosine A1 receptor ECR*: 1.31

Molecule: O[C@@H]1[C@H](O)[C@@H](c2nc(C3CC3)no2)O[C@H]1n1cnc2c(NC3CCOCC3)ncnc21 [Example 22]
Assayed target: human adenosine A1 receptor (Homo sapiens, UniProt P30542)
Adenosine A1 receptor ECR*: 8.75

Molecule: CC(C)c1noc([C@H]2O[C@@H](n3cnc4c(NC5CC5)ncnc43)[C@H](O)[C@@H]2O)n1 [Example 51]
Assayed target: human adenosine A1 receptor (Homo sapiens, UniProt P30542)
Adenosine A1 receptor ECR*: 7.56

Molecule: Cc1cccc(NS(=O)(=O)CCNc2ncnc3c2ncn3[C@@H]2O[C@H](c3nnc(C(C)(C)C)o3)[C@@H](O)[C@H]2O)c1 [Example 126]
Assayed target: human adenosine A1 receptor (Homo sapiens, UniProt P30542)
Adenosine A1 receptor ECR*: 13.9

Molecule: Cc1nnc([C@H]2O[C@@H](n3cnc4c(N[C@H]5CCC[C@@H]5O)ncnc43)[C@H](O)[C@@H]2O)o1 [Example 132]
Assayed target: human adenosine A1 receptor (Homo sapiens, UniProt P30542)
Adenosine A1 receptor ECR*: 0.53

Molecule: CC(C)(C)c1noc([C@H]2O[C@@H](n3cnc4c(N[C@H]5CCC[C@@H]5O)ncnc43)[C@H](O)[C@@H]2O)n1 [Example 21]
Assayed target: human adenosine A1 receptor (Homo sapiens, UniProt P30542)
Adenosine A1 receptor ECR*: 23.26

Molecule: CNS(=O)(=O)CCNc1ncnc2c1ncn2[C@@H]1O[C@H](c2nc(C(C)C)no2)[C@@H](O)[C@H]1O [Example 54]
Assayed target: human adenosine A1 receptor (Homo sapiens, UniProt P30542)
Adenosine A1 receptor ECR*: 20.78

Molecule: CC(C)c1nnc([C@H]2O[C@@H](n3cnc4c(Nc5ccc(F)cc5Cl)ncnc43)[C@H](O)[C@@H]2O)[nH]1 [Example 68]
Assayed target: human adenosine A1 receptor (Homo sapiens, UniProt P30542)
Adenosine A1 receptor ECR*: 4.09

Molecule: CC(C)CNc1ncnc2c1ncn2[C@@H]1O[C@H](c2nc(C(C)(C)C)no2)[C@@H](O)[C@H]1O [Example 45]
Assayed target: human adenosine A1 receptor (Homo sapiens, UniProt P30542)
Adenosine A1 receptor ECR*: 7.36

Molecule: O[C@@H]1[C@H](O)[C@@H](c2cc(C3CC3)no2)O[C@H]1n1cnc2c(Nc3ccc(Cl)cc3F)ncnc21 [Example 182]
Assayed target: human adenosine A1 receptor (Homo sapiens, UniProt P30542)
Adenosine A1 receptor ECR*: 3.48

Molecule: CC(C)(C)c1nnc([C@H]2O[C@@H](n3cnc4c(Nc5ccc(Cl)cc5F)ncnc43)[C@H](O)[C@@H]2O)o1 [Example 14]
Assayed target: human adenosine A1 receptor (Homo sapiens, UniProt P30542)
Adenosine A1 receptor ECR*: 5.8

Molecule: CCOC(=O)N1CCC(Nc2ncnc3c2ncn3[C@@H]2O[C@H](c3nnc(C4CC4)o3)[C@@H](O)[C@H]2O)CC1 [Example 12]
Assayed target: human adenosine A1 receptor (Homo sapiens, UniProt P30542)
Adenosine A1 receptor ECR*: 2.28

Molecule: CCOC(=O)N1CCC(Nc2ncnc3c2ncn3[C@@H]2O[C@H](c3nnc(C(C)(C)C)o3)[C@@H](O)[C@H]2O)CC1 [Example 4]
Assayed target: human adenosine A1 receptor (Homo sapiens, UniProt P30542)
Adenosine A1 receptor ECR*: 5.65
